# Experimental system: PRMT5/MEP50 complex (Homo sapiens, UniProt O14744)
# Sequence (O14744 whole entry): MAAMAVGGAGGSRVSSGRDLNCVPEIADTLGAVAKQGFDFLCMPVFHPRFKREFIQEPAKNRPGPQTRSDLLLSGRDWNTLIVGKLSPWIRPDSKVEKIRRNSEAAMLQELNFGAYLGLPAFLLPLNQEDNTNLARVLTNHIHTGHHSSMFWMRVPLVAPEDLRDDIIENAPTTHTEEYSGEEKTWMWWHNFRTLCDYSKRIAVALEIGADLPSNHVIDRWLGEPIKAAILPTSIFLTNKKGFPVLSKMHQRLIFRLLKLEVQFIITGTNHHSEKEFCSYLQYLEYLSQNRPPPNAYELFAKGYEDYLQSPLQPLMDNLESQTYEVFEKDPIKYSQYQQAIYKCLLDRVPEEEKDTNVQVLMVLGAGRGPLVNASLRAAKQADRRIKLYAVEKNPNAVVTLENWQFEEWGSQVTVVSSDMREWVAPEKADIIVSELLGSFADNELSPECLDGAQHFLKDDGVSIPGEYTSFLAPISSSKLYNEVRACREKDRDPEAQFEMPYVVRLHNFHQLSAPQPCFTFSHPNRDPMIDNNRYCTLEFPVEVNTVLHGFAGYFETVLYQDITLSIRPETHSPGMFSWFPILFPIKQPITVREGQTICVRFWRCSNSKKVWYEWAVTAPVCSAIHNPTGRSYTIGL
# Sequence (Q9BQA1 whole entry, further chain): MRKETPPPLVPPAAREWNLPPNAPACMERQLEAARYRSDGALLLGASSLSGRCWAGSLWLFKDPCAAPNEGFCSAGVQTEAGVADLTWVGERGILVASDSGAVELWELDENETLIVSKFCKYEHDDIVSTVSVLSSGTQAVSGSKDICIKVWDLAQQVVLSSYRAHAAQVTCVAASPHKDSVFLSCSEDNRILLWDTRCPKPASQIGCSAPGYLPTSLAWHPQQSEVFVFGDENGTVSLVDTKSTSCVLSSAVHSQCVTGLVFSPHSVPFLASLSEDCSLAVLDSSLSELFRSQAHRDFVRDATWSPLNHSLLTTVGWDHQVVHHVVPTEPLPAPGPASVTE
# Test: Inhibition of recombinant N-terminal FLAG-tagged human full-length PRMT5/full length human MEP50 extracted from baculovirus expression system using [3H]-SAM as substrate preincubated for 15 mins followed by substrate addition and measured after 60 mins by multimode plate reader analysis
Kindly state pIC50 for each of the entries shown.
The scale used: pIC50 is minus the common logarithm of the concentration in molar units.

Task: Need pIC50, item O=C1c2cc(NC3CCNCC3)ccc2C2(CC2)CN1C[C@H](O)CN1CCc2ccccc2C1
Result: 8.05

Task: Need pIC50, item O=C1c2cc(NS(=O)(=O)c3ccccc3)ccc2C2(CC2)CN1C[C@H](O)CN1CCc2ccccc2C1
Result: 6.60

Task: Need pIC50, item O=C1c2cc(NC3CCN(C(=O)C4CC4)CC3)ccc2C2(CCCC2)CN1C[C@H](O)CN1CCc2ccccc2C1
Result: 7.34

All figures here come from ChEMBL document CHEMBL6087464.
